# Assay summary: A quantitative high throughput screen for small molecules that induce DNA re-replication in MCF 10a normal breast cells. Further: nearly all actives have a fitted effect of over 50% in size.
# Test conditions: MCF 10A DNA re-replication, Hoechst nuclear intensity, 48 h; series mostly up to 46.1 µM
About 9,900 (2.8%) of roughly 350,000 compounds were called active. Inconclusive results (about 15%) are left out. The call rests on the fitted dose curve; in most records, active means well fitted activation curve with a large enough effect; inconclusive means small, poorly fitted or top-dose-only effect; inactive means no such curve, though single readings can be large or run the other way. The sample holds actives, similar compounds and a random draw of the others, so the mix is not that of the screen.
Hi there, use one of these labels in your reply, thanks! active, inactive

IN: Which outcome was assigned to `O=C(Nc1cccc(C(F)(F)F)c1)c1cc(Br)cc(Br)c1O` in this test?
OUT: active

IN: Which outcome was assigned to `O=C(N[C@@H](Cc1ccccc1)C(=O)OCc1ccccc1)c1nc[nH]c1C(=O)N[C@@H](Cc1ccccc1)C(=O)OCc1ccccc1` in this test?
OUT: inactive

IN: Which outcome was assigned to `O=C(NCCSCc1ccccc1)c1ccc(Cl)c(S(=O)(=O)N2CCOCC2)c1` in this test?
OUT: inactive

IN: Which outcome was assigned to `Cc1cc(S(=O)(=O)c2cc3ccc(O)c(C)c3oc2=O)ccc1F` in this test?
OUT: active

IN: Which outcome was assigned to `COc1cccc2cc(S(=O)(=O)c3ccc(C)cc3)/c(=N/NS(=O)(=O)c3ccc(C)cc3)oc12` in this test?
OUT: inactive

IN: Which outcome was assigned to `Cc1ccc(-c2csc(C(C#N)=C(O)CN3CCN(C(=O)c4ccco4)CC3)n2)cc1` in this test?
OUT: inactive

IN: Which outcome was assigned to `CCCCNc1c(-c2cccc(Sc3ccc(OC)cc3)c2)nc2ccccn12` in this test?
OUT: active

IN: Which outcome was assigned to `C=CCO/N=C(\C)c1c(O)c(C)c(-c2ccccc2)n(-c2ccccc2)c1=O` in this test?
OUT: inactive

IN: Which outcome was assigned to `O=C(COC(=O)COc1cc(Cl)c(Cl)cc1Cl)NC1CC1` in this test?
OUT: inactive

IN: Which outcome was assigned to CCOC(=O)N1CCN(C(=O)C2CCCN(c3ncnc4c3sc3cccc(F)c34)C2)CC1 (stereo not given) in this test?
OUT: inactive

IN: Which outcome was assigned to OC1CCCN(c2ncnc3c2nnn3Cc2c(F)cccc2Cl)C1 (stereo not given) in this test?
OUT: active

IN: Which outcome was assigned to `Cc1cc(C)c[n+](-c2nc3ccccc3nc2[N-]S(=O)(=O)c2cccs2)c1` in this test?
OUT: inactive

IN: Which outcome was assigned to `O=C(NCc1ccc2c(c1)OCO2)c1cc(F)c(F)cc1Cl` in this test?
OUT: inactive

IN: Which outcome was assigned to `O=C(c1cc(=O)c2ccccc2o1)N1CCN(c2ccccc2)CC1` in this test?
OUT: inactive

IN: Which outcome was assigned to `CN(C)S(=O)(=O)c1ccc(C(=O)NCC(C)(C)N2CCOCC2)cc1` in this test?
OUT: inactive

IN: Which outcome was assigned to `COc1ccc(CC(=O)Nc2nc(-c3ccc(F)c(F)c3)cs2)cc1OC` in this test?
OUT: inactive

IN: Which outcome was assigned to `CCOC(=O)c1ccccc1NC(=O)CSc1nc2ccccc2c(=O)[nH]1` in this test?
OUT: active

IN: Which outcome was assigned to `Cc1cc(NC(=O)COc2ccc(Cl)cc2Cl)n(CCC#N)n1` in this test?
OUT: inactive

IN: Which outcome was assigned to `Nc1nonc1-n1nnc(C(=O)N/N=C/c2ccccc2O)c1CN1CCCC1` in this test?
OUT: inactive

IN: Which outcome was assigned to `CC(C)(CNC(=O)c1ccc(Cl)c(S(=O)(=O)N2CCc3ccccc3C2)c1)N1CCOCC1` in this test?
OUT: active

IN: Which outcome was assigned to `COc1cc2c(cc1OC)CN(C(=O)c1cc(=O)c3ccccc3o1)CC2` in this test?
OUT: active

IN: Which outcome was assigned to `COC(=O)Cc1cc(=O)oc2c(C)c(O)ccc12` in this test?
OUT: inactive

IN: Which outcome was assigned to `CCN1C[C@@H]2[C@@H]3C(=O)N(Cc4ccccc4)C(=O)[C@@H]3[C@](Cc3ccccc3)(C(=O)OC)N2C1=NC1CCCCC1` in this test?
OUT: inactive

IN: Which outcome was assigned to `COc1ccc(Cl)cc1NC(=O)CN(C)CC(=O)Nc1ccc2c(c1)OCO2` in this test?
OUT: inactive

IN: Which outcome was assigned to `COc1ccc(CCC(=O)N2CCN(S(=O)(=O)c3ccc(OC)cc3)CC2)cc1` in this test?
OUT: inactive

IN: Which outcome was assigned to `COC(=O)c1ccccc1NC(=O)CSc1nc2c(c(=O)[nH]1)CCC2` in this test?
OUT: inactive

IN: Which outcome was assigned to `Nc1nonc1-n1nnc(C(=O)N/N=C/c2cc(Br)ccc2O)c1CSC1=NCCS1` in this test?
OUT: active

IN: Which outcome was assigned to `O=C(O)CSCC(=O)Nc1cccc(C(F)(F)F)c1` in this test?
OUT: inactive

IN: Which outcome was assigned to `Cc1cccc(NC(=O)c2cccc(C(F)(F)F)c2)c1` in this test?
OUT: inactive

IN: Which outcome was assigned to `CCCc1cc(=O)[nH]c(SCC(=O)Nc2ccc(C(=O)Nc3ccccc3OC)cc2)n1` in this test?
OUT: inactive

IN: Which outcome was assigned to O=C1CC(c2ccccc2)C(=O)N2C(=O)CC(c3ccccc3)C(=O)N12 (stereo not given) in this test?
OUT: inactive

IN: Which outcome was assigned to `CCOC(=O)c1cnc(SCC(=O)Nc2ccccc2C(=O)OC)nc1N` in this test?
OUT: inactive

IN: Which outcome was assigned to `CC(=O)N(C1=C(Cl)C(=O)c2ccccc2C1=O)c1ccc(C(=O)O)cc1` in this test?
OUT: active

IN: Which outcome was assigned to CC(=O)Nc1ccc(S(=O)(=O)NC(C)C(=O)OCCOc2ccc(F)cc2)cc1 (stereo not given) in this test?
OUT: inactive

IN: Which outcome was assigned to `O=C(Nc1nnc(-c2ccccc2)o1)c1cccc(S(=O)(=O)N2CCOCC2)c1` in this test?
OUT: inactive
